I'd appreciate it if you could supply pIC50 values for the items below.
tested on: B16F10 cells; test: Cell proliferation assay B16F10 (alamarBlue); type: cell-based; settings: Mus musculus, B16-F10, melanoma (BRAF wild-type) cells, 96 hours
FYI, pIC50 means -log10 of a concentration in mol per litre.

Task: Item under review: `C[C@@H]1C(=O)N(C)c2ccc(Nc3cccc(C(F)(F)F)c3)nc2N1C1CCOCC1` . Reported pIC50?
Result: 5.97

Task: Do the same for `CC(C)S(=O)(=O)c1cccc(Nc2ccc3c(n2)N(C2CCOCC2)[C@H](C)C(=O)N3C)c1` please
Result: 6.98

Task: Can you check `COc1cc(Nc2ccc3c(n2)N(C2CCOCC2)[C@H](C)C(=O)N3C)cc(S(C)(=O)=O)c1` next?
Result: 6.57

Task: Please give the result for `COc1ccc(S(=O)(=O)C2CCC2)cc1Nc1ccc2c(n1)N(C1CCOCC1)[C@H](C)C(=O)N2C` too.
Result: 7.80

Task: Now the molecule `C[C@@H]1C(=O)N(C)c2ccc(Nc3cccc(S(C)(=O)=O)c3)nc2N1C1CCN(C)CC1`
Result: 6.35

Task: Next molecule: `COc1ccc(S(=O)(=O)C(C)C)cc1Nc1ccc2c(n1)N(C(C)C)[C@H](C)C(=O)N2C`
Result: 6.74

Task: Follow-up item: `Cc1cc(Nc2ccc3c(n2)N(C2CCOCC2)[C@H](C)C(=O)N3C)ccn1`
Result: 5.97

Task: Input `COc1ccc(S(=O)(=O)C2CC2)cc1Nc1ccc2c(n1)N(C1CCOCC1)[C@H](C)C(=O)N2C`
Result: 7.43
